Kindly state IC50, Tau40 assay-Modified peptides (ThT) for each of the entries shown.
- System: Tau40 P301L protein (human)
- Protocol summary: cell-based or functional assay
Square brackets hold non-standard residues; d marks the D form. Ends that are not written are not given here. Tam = not defined here
Give the value; after it, write the unit.

Look up IC50, Tau40 assay-Modified peptides (ThT): YGRKKRRQRRRGGSGG[dR][dL][dK][dV][dR][dW] [[…]-GGSGG-rlkvrw] 1.73 µM

# repeat for Tam-RRRRRRRRRGGSGG[dR][dL][dK][dV][dR][dW] (reading uncertain; also: printed as Tam-RRRRRRRRR-GGSGG-rlkvrw) [Tam-RRRRRRRRR-GGSGG-rlkvrw] 20.1 µM

# repeat for Tam-RRRRRRRRRRGGSGG[dT][dL][dK][dI][dV][dW] (reading uncertain; also: printed as Tam-RRRRRRRRRR-GGSGG-tlkivw) [Tam-RRRRRRRRRR-GGSGG-tlkivw] 4.92 µM

# repeat for Tam-RRRRRRRRRRGGSGG[dW][dK][dV][dQ][dV][dR][dL][dW] (reading uncertain; also: printed as Tam-RRRRRRRRRR-GGSGG-wkvqvrlw) [Tam-RRRRRRRRRR-GGSGG-wkvqvrlw] 5.53 µM
